Tested on: SF-268
method-notes: Cytotoxicity against human SF268 cells after 48 hrs by SRB assay
Assay type: functional
particulars: SF-268, 48 h

smiles-str: CO[C@@H]1C[C@H]2C(C)(C)CCC[C@]2(C)c2ccc(O)c(C(C)C)c21
value-qualifier: =
GI50 [µg/mL]: 1.9

smiles-str: CO[C@H]1C[C@H]2C(C)(C)CCC[C@]2(C)c2ccc(O)c(C(C)C)c21
value-qualifier: =
GI50 [µg/mL]: 0.85

smiles-str: CC(C)c1c(O)ccc2c1C=C[C@H]1C(C)(C)CCC[C@]21C
value-qualifier: >
GI50 [µg/mL]: 10

smiles-str: CC(C)O[C@@H]1C[C@H]2C(C)(C)CCC[C@]2(C)c2ccc(O)c(C(C)C)c2O1
value-qualifier: =
GI50 [µg/mL]: 2

smiles-str: CC(C)c1c(O)ccc2c1[C@H](O)C[C@H]1C(C)(C)CCC[C@]21C
value-qualifier: =
GI50 [µg/mL]: 2.3

* * *

System: DU-145
method-notes: Cytotoxicity against human DU145 cells after 48 hrs by SRB assay
Type: functional
particulars: DU-145, 48 h
GI50 values, listed per item
measured-attribute: GI50 (µg/mL)

compound: CO[C@@H]1C[C@H]2C(C)(C)CCC[C@]2(C)c2ccc(O)c(C(C)C)c21
value-qualifier: =
numeric-result: 1.7
--
compound: CC(C)O[C@@H]1C[C@H]2C(C)(C)CCC[C@]2(C)c2ccc(O)c(C(C)C)c2O1 [NOOTKASTATIN 2]
value-qualifier: =
numeric-result: 2.2
--
compound: CC(C)c1c(O)ccc2c1C=C[C@H]1C(C)(C)CCC[C@]21C
value-qualifier: >
numeric-result: 10
--
compound: CC(C)c1c(O)ccc2c1[C@H](O)C[C@H]1C(C)(C)CCC[C@]21C
value-qualifier: =
numeric-result: 2.6
--
compound: CO[C@H]1C[C@H]2C(C)(C)CCC[C@]2(C)c2ccc(O)c(C(C)C)c21 [NOOTKASTATIN 1]
value-qualifier: =
numeric-result: 1.1

* * *

MIC values, listed per item
Tested on: Enterococcus faecalis
method-notes: Antimicrobial activity against Enterococcus faecalis ATCC 29212 after 24 hrs by broth microdilution assay
Assay type: functional
particulars: ATCC 29212, 24 h
measured-attribute: MIC (µg/mL)

smiles-str: CC(C)c1c(O)ccc2c1C=C[C@H]1C(C)(C)CCC[C@]21C
measured-attribute: MIC
unit-abbreviation: µg/mL
numeric-result: 16

smiles-str: CO[C@@H]1C[C@H]2C(C)(C)CCC[C@]2(C)c2ccc(O)c(C(C)C)c21
measured-attribute: MIC
unit-abbreviation: µg/mL
numeric-result: 4

smiles-str: CC(C)O[C@@H]1C[C@H]2C(C)(C)CCC[C@]2(C)c2ccc(O)c(C(C)C)c2O1
measured-attribute: MIC
unit-abbreviation: µg/mL
numeric-result: 2

smiles-str: CO[C@H]1C[C@H]2C(C)(C)CCC[C@]2(C)c2ccc(O)c(C(C)C)c21
measured-attribute: MIC
unit-abbreviation: µg/mL
numeric-result: 4

smiles-str: CC(C)c1c(O)ccc2c1[C@H](O)C[C@H]1C(C)(C)CCC[C@]21C
measured-attribute: MIC
unit-abbreviation: µg/mL
numeric-result: 16
